# TESTED SYSTEM: human Nectin-4 (protein used in the SPR affinity measurements) (human) (UniProt Q96NY8)
# Sequence (Q96NY8 32-349 limits assumed): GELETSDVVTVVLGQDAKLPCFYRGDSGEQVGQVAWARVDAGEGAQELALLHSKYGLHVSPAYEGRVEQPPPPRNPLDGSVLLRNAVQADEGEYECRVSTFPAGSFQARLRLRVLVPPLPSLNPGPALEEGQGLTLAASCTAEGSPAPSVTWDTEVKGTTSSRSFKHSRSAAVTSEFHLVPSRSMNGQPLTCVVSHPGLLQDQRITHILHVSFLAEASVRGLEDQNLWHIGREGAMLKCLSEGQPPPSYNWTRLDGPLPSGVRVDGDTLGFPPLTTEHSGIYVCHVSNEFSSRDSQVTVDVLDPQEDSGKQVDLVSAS
# TEST DETAILS: SPR, human IgG1
READOUT NAME: koff

Indicate its recorded koff; the binder in question is H5L3 (antibody, human IgG1, kappa, V domains shown, Tested as human IgG1) VH: QVQLVQSGAEVKKPGASVKVSCKASGYIFTSYWMHWVKQRPGQGLEWMGEIDPSDSYTNYNQKFKGRVTMTLDKSTSTTYMELSSLRSEDTAVYYCARGYGNYGDYWGQGTLVTVSS VL: DVVMTQSALSNPVTPGEPASISCRSSKSLLHSNGITYLYWYLQKPGQSPQLLIYQMSNLASGVPDRFSSSGSGTDFTLKISRVEAEDVGVYYCAQNLELPWTFGGGTKVEIKR
0.0053 s⁻¹

Provenance of the data: patent US20250297004A1
